Each recorded value in this set is attributed to patent US20240325529A1.

Target: T1, human CAPRIN-1 protein on cell membrane surfaces of human cancer cells (human, UniProt Q14444 2-709)
T1 construct: whole, on cells; Endogenous protein on cancer cells, stained without permeation of the cell membrane
T1 sequence (looked up): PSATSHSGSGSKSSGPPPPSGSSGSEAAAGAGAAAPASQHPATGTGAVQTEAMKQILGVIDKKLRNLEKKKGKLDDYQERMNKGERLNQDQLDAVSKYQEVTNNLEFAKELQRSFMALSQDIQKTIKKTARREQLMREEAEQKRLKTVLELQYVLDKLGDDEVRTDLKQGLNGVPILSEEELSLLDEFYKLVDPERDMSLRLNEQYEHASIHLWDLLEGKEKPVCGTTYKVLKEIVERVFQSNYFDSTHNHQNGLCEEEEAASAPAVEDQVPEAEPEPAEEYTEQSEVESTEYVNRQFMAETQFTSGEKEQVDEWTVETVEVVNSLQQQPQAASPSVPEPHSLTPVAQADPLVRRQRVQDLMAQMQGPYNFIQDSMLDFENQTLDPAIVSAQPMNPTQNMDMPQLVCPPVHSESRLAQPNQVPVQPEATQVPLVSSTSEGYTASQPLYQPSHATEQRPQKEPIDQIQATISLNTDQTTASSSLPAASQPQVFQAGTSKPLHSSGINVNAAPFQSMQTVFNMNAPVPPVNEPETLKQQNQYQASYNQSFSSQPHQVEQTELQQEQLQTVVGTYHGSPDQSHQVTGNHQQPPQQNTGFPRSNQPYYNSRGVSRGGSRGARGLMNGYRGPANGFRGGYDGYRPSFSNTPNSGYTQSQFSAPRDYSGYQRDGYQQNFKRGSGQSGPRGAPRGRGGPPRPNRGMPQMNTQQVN
Assay: flow cytometry on cancer cells expressing CAPRIN-1
outcome_measure: binding result

Data request: So what does the record say about binding result for anti-CAPRIN-1 antibody (i) (antibody, V domains shown) VH: GAELVRSGASVKMSCKASGYSFTDYNMYWVKQTPGQGLEWIGYIYPGNGGTNYNQKFKGKATLTADTSSSTAYMQISSLTSEDSAVYFCARDYDDGGYAMDYWGQGTTVTVSS VL: DIQMTQSPASLSASVGETVTITCRASGNIHNYLTWYQQKQGKSPQLLVYNAKTLADGVPSRFSGSGSGTQYSLKINRLQPEDFGSYYCQHFWNIPWTFGGGTKLNSR ?
Data returned: binds

Data request: So what does the record say about binding result for anti-CAPRIN-1 antibody (a) (antibody, V domains shown) VH: AVTLDESGGGLQMSRGGLSLVCKASGFDFSSYQMNWIRQAPGKGLEFVAAINKFGNSTGHGAAVKGRVTISRDNGQSTVRLQLNNLRAEDTAIYFCTKHAYGYCGSGTWCAAGEIDAWGHGTEVIVSS VL: QAASTQPSSVSANPGETVEITCSGGGSYSYGWFQQKSPGSAPVTVIYYNNKRPSDIPSRFSGSKSGSTGTLTITGVQADDEAVYYCGSGDSTDTAVFGAGTTLTVLG ?
Data returned: binds
